# Measurement target: PTP1B (Homo sapiens, UniProt P18031)
# Sequence (P18031 1-322): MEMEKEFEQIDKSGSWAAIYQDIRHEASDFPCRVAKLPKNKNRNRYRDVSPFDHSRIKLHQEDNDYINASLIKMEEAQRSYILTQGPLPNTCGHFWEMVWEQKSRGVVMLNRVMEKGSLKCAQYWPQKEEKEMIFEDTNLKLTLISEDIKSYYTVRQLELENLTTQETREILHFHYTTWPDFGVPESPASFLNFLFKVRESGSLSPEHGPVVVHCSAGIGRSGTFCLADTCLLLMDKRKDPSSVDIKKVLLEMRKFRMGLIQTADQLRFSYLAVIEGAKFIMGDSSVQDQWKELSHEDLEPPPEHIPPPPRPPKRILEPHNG
# Protocol summary: Enzyme kinetic analysis towards PTP1B (Lineweaver-Burk plot and secondary plots)
# Assay type: biochemical
Readout name: Enzyme Kinetics Inhibition Type (PTP1B)

1) CC(C)C1(CC[C@@H](C)[C@H]2CCC3C4CC=C5C[C@@H](O)CC[C@]5(C)C4CC[C@@]32C)OC1C (mixture of isomers)
Non-competitive
2) CC1(C)[C@@H](O)CC[C@]2(C)[C@H]3C(=O)C=C4[C@H]5C[C@@](C)(C(=O)O)CC[C@]5(C)CC[C@@]4(C)[C@]3(C)CC[C@@H]12
Competitive
3) C=C(COC(=O)CCCCCC(=O)OCC(O)COC(=O)CCC/C=C\C/C=C\C/C=C\CCCCCCCC)C(=O)O (centres unmarked)
Non-competitive
4) CC1(C)C2CC[C@]3(C)[C@H](C(=O)C=C4[C@@H]5C[C@@](C)(C(=O)O)CC[C@]5(C)CC[C@]43C)[C@@]2(C)CC[C@@H]1O (some centres unmarked)
Competitive

====

# Measurement target: Yeast α-glucosidase
# Protocol summary: In vitro α-glucosidase inhibitory activity assay
# Protocol conditions: mean ± SD of triplicate experiments
Readout name: IC50 (µM)
Answers are plain numbers, in µM.

Here are 3 molecules together with their reported answers.
1) NCCc1ccc(O)cc1
273
2) CC1(C)C2CC[C@]3(C)[C@H](C(=O)C=C4[C@@H]5C[C@@](C)(C(=O)O)CC[C@]5(C)CC[C@]43C)[C@@]2(C)CC[C@@H]1O (some centres unmarked)
129
3) CC/C=C\C/C=C\C/C=C\CCCCCCC(=O)O [Compound 12]
43.9

Using the record for COc1cc([C@H]2Oc3c(O)cc(CCCO)cc3[C@@H]2CO)ccc1O , report its IC50.
134

====

Could you please report measured IC50 for the items listed next?
# Measurement target: Yeast α-glucosidase
# Protocol summary: In vitro α-glucosidase inhibitory activity assay
# Protocol conditions: mean ± SD of triplicate experiments

Examples with answers:
1) C/C=C(\CC[C@@H](C)[C@H]1CC[C@H]2[C@@H]3CC=C4C[C@@H](O)CC[C@]4(C)[C@H]3CC[C@]12C)C(C)C
> 150 µM
2) CC1(C)[C@@H](O[C@H]2O[C@H](C(=O)O)[C@@H](O)[C@H](O)[C@H]2O[C@@H]2O[C@H](C(=O)O)[C@@H](O)[C@H](O)[C@H]2O)CC[C@]2(C)[C@H]3C(=O)C=C4[C@@H]5C[C@@](C)(C(=O)O)CC[C@]5(C)CC[C@@]4(C)[C@]3(C)CC[C@@H]12
> 150 µM
3) CC(C)C1(CC[C@@H](C)[C@H]2CCC3C4CC=C5C[C@@H](O)CC[C@]5(C)C4CC[C@@]32C)OC1C (mixture of isomers)
> 150 µM
4) CCCCCCCC/C=C\CCCCCCCC(=O)O [Compound 3, (Z)-octaec-9-enoic acid]
113 µM
5) CCCC/C=C\C/C=C\C/C=C\CCCCCC(=O)O
112 µM
6) CCCCCC\C=C/C=C\C=C/C=C\CCCCCC(=O)O
34.9 µM

I have 2 molecules here; please give me IC50 for each one.
1. CC/C=C\C/C=C\C/C=C\C/C=C\CCCCC(=O)O
2. OCC1OC(OCc2ccccc2)C(O)C(O)C1O (centres unmarked) [Compound 16, benzyl alcohol alloside]

> 200 µM
> 250 µM
